Target: T1, StpA-CTD (Escherichia coli, UniProt P0ACG1 90-134)
T1 chain: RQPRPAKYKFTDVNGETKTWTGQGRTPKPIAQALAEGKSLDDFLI
Test: ITC; 25 C; n=1.74; 50 mM BisTris, 25 mM NaCl, pH 6.4; ITC at 5 and 25 C (40 uM RNA in cell, StpA-CTD 400/800/920 uM injected); NMR with 10% D2O, titration at 25 C
Conditions: protein: recombinant; tags: none (His6-SUMOstar removed by SUMO protease); chain copies: 2; hairpin (3'-fold), 1 nt 5' overhang
readout.name: Kd
Answer with the figure and its unit, nothing else.

(Q) For the binder CGGAAGGUCCGCCUUCC (structured_RNA) [3'-HP] , what Kd is on record?
(A) 16.1 µM

This collection of values is drawn from paper PMC8565331.
